Just for reference, the supplement of paper PMC9170038 is where these values come from.

# System: MS2 coat protein
# PROTOCOL_DESCRIPTION: apparent KD of MS2 coat protein; higher = weaker reporter binding
# RECORDED_CONDITIONS: Eterna round: R107; input ligand: theophylline 20 uM
PROPERTY_NAME: apparent KD of MS2 coat protein
# number then unit; no other words

INPUT_SEQUENCE	REPORTED_MEASUREMENT
CUUCAGGGUGCGGCCGCCACUUAUUAGGUGCUUGCGACGCCAGCACAUGAGGAUCACCCAUGUUCAAGGACCGGGCACCACCUUU [theeternabot_sameState_MS2_Trp_B_21]	0.02 µM
GUUUUAUACUCGGCCGCCACUGAGAGAGUCAUGUAAACAUGAGGAUCACCCAUGUAAUAUAUAUACAGGACCGGGAGUAGGGUAA [4.F]	0.0161 µM
UAUAUAUAUCACGAACUGUGGUGUAUGUCUCGAGGACCGGUACGGCCGCCACUCGCGCGGCCUCACAUGAGGAUCACCCAUGUCC [XTryp A #5]	0.132 µM

I need apparent KD of MS2 coat protein for every entry listed below, if you could help.
1. CGAUAUAUACGAAGGAGCGACAUGAGGAUCACCCAUGUCUACCACGUCGAAAGACGCUCAUGUCAGGUAGGUCGCGUAUAUAUCG [Astros-Eli-mod9]
2. GGUUACUCUACGGCCGCCACUGUAAUGUAAAGAUUCCUGUACAUGACAUGAGGAUCACCCAUGUGCAGGACCGGGUAGUGUAACC [Tryptophan B 20]
3. CCUAUGCAGUCGGCCGCCACUGAACAUGAGGAUCACCCAUGUAAUUAUAAAUAUGGUCCUAAAAUCAGGACCGGGACUGUAUAGG [Ex Tryptophan B 7]
4. GGUUACUCUACGGCCGCCACUGAACAUGAGGAUCACCCAUGUAAUGUUCAGUAGUCUUUAGACAACAGGACCGGGUAGUGUAACC [Tryptophan B 6]
5. GUCCAAAGGUCGGCCGCCACUGUAGAGUGUGUUCUUUCACAUGAGGAUCACCCAUGUUGUUAUUAUAGGACCGGGAUUGUAGGAC [#21 Exclusion Tryptophan B]
6. GUUUAAAGGUCGGCCGCCACUGUAGGAUGUGUUCUUUCACAUGAGGAUCACCCAUGUUGUUAUUAUAGGACCGGGAUUGUAGGAC [39MS split4]

Result:
1. 0.123 µM
2. 0.208 µM
3. 0.144 µM
4. 0.236 µM
5. 0.0311 µM
6. 0.0423 µM

I need apparent KD of MS2 coat protein for every entry listed below, if you could help.
1. UUCAAAGGGAACGGUGCUGGUAACAGAGAUACCAGAGUAAUAAUACUCCCUUGGCAGCUCAUAACAUGAGGAUCACCCAUGUAAU [Exclusion Theophylline A GF21]
2. ACAUGAGGAUCACCCAUGUUCCUCAUUGAUACCAGUGAAUUUAGACGCCCUUGGCAGCGAGUUUUUGAAGAAGAAGUUUUUUUUU [6.D]
3. GAUAUAUAGGCGGCCGCCACUGAUUUUCAUAUAUAUAUAACAUGAGGAUCACCCAUGUAGAUAUACAGGACCGGGCCUAUAUAUU [aaaB]

Result:
1. 0.0174 µM
2. 0.731 µM
3. 0.016 µM
